target: T1, regulatory RIIβ subunit of PKA (rat) (rat, UniProt P12369 1-416, 32P-labelled with the catalytic subunit of PKA when used as probe in the RII overlay experiments); assay: surface plasmon resonance
T1 construct: Radiolabelled probe in RII overlays; format in the surface plasmon resonance measurements is not described; also called RIIβ subunit of PKA from rats
T1 sequence (P12369 whole entry): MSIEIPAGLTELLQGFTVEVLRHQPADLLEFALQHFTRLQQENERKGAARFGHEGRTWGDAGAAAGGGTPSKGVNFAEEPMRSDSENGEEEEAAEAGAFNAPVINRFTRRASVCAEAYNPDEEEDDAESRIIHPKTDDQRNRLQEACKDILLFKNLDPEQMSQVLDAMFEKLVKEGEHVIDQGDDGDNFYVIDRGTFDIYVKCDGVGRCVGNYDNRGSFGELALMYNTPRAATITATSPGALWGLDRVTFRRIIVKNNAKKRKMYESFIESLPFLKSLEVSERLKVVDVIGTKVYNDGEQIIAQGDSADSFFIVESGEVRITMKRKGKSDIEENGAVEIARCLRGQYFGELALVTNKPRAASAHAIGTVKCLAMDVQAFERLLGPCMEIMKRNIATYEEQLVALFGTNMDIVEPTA
measuredAttribute: Kd (nM)
// return numeric value only (unit: nM, not printed)

Provide measured Kd value, entry: PEDAELVRLSKRLVENAVEKAVQQY (also called AKAP18delta-L314E; No. W) [AKAP18δ-L314E] 22
